Every entry's value here was drawn from patent EP1268431B1.

test system: Rat2 fibroblasts stably transformed with a plasmid containing a CMV promotor controlled v-Src/Hu c-Src fusion gene; test: Anchorage Independent Src-transformed Fibroblast Proliferation Assay; conditions: Rattus norvegicus, Rat2, 120 h, read-out: anch-indep src-tx fib IC50, suspension growth, MTS on Day 5
Outcome Measure: IC50

COc1cc(Nc2c(C#N)cnc3cc(C#Cc4ccccc4)ccc23)c(Cl)cc1Cl [Example 140] = > 10000 nM

**Q:** Given the molecule COc1cc(Nc2c(C#N)cnc3cc(-c4ccc(CN5CCS(=O)(=O)CC5)cc4)ccc23)c(Cl)cc1Cl [Example 150] , write its reported IC50.
**A:** 500 nM

**Q:** Quick one: give measured IC50 for N#Cc1cnc2cc(-c3cc(CN4CCOCC4)c(CN4CCOCC4)s3)ccc2c1Nc1ccc(Cl)cc1Cl [Example 17]
**A:** 310 nM

**Q:** Give the value of IC50 reported for the following: COc1cc(Nc2c(C#N)cnc3cc(-c4ccc(CN5CCCC(C(=O)O)C5)cc4)ccc23)c(Cl)cc1Cl (stereo not shown) [Example 149]
**A:** 2500 nM
